Below is a list of entries, each paired with its recorded abundance fitness value.
B1: SAM and SH3 domain-containing protein 1, residues 630 to 700; numbered along this chain, O94885 (parent)
chain: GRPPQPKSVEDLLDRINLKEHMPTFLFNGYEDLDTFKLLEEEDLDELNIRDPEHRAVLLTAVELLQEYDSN

variants of: B1; experiment: abundance fitness (aPCA) (normalised: wild type 0, dead -1); higher = more abundant; growth selection in yeast, the domain comes from the species named; conditions: Homo sapiens
Note: the reply should be a number with no unit written.

GRPPQPKSVEDLLDRINLKEHCPTFLFNGYEDLDTFKLLEEEDLDELNIRDPEHRAVLLTAVELLQEYDSN [M22C]; -0.135
GRPPQPKSVEDLLDRINLKEHMKTFLFNGYEDLDTFKLLEEEDLDELNIRDPEHRAVLLTAVELLQEYDSN [P23K]; 0.043
GRPPQPKSVEDLLDRINLKEHMPTFLFNGYEDLDTFKLLEEEDVDELNIRDPEHRAVLLTAVELLQEYDSN [L44V]; -0.791
GRPPQPKSVEDLLDRINLKEHMPTFLFNGYEDLDTFKLLEEEDLQELNIRDPEHRAVLLTAVELLQEYDSN [D45Q]; -0.557
GRPPQPKSVEDCLDRINLKEHMPTFLFNGYEDLDTFKLLEEEDLDELNIRDPEHRAVLLTAVELLQEYDSN [L12C]; -0.654

Look at this variant and give its reported abundance fitness. GRPPQPKSVEDLLDRINLKEHMPTFLFNGYEDLDTFKLLEEEDLDELNIRDPEHRAVLLTAVELYQEYDSN [L65Y]
-0.961

Given the entry GRPPQPKSVEDLLDRINLKEHMPTFLFNGYEDLDTFKLLEEEDLDELNIRDPEHRSVLLTAVELLQEYDSN [A56S] , report its measured abundance fitness.
0.011

Fill in the blank: the reported abundance fitness of GRPPQPKSVEDLLDRINLKEHMPTFLFNGYEDLDTFKLLEEEDLDELNIRDPEHRHVLLTAVELLQEYDSN [A56H] is ____.
-0.057

What value of measured abundance fitness is listed for GRPPQPKSVEDLLDRINLKEHMPCFLFNGYEDLDTFKLLEEEDLDELNIRDPEHRAVLLTAVELLQEYDSN [T24C] ?
-0.474
